Each recorded value in this set is attributed to paper PMC10233829.

# System: P. aeruginosa 37
# measurement-notes: MIC, twofold microdilution, clinical strain
# Type: cell-based
# condition-description: Pseudomonas aeruginosa, 18 h
measurement-label: MIC

O=C(O)c1cn(C2CC2)c2cc(N3CCN(C(=O)CCCCCCl)CC3)c(F)cc2c1=O [Compound 7]	> 25.6 µg/mL
O=C(O)c1cn(C2CC2)c2cc(N3CCN(C(=O)CCCCCBr)CC3)c(F)cc2c1=O [Compound 12]	> 25.6 µg/mL
O=C(O)c1cn(C2CC2)c2cc(N3CCN(CCCCCCCCCCC(=O)N4CCN(c5cc6c(cc5F)c(=O)c(C(=O)O)cn6C5CC5)CC4)CC3)c(F)cc2c1=O [Compound 21, CP–Undecanoyl–CP Dimer]	> 25.6 µg/mL
O=C(O)c1cn(C2CC2)c2cc(N3CCN(C(=O)CCCC(F)(F)F)CC3)c(F)cc2c1=O [Compound 16]	> 25.6 µg/mL

# input Return the recorded MIC value; entry: C=CC(=O)N1CCN(c2cc3c(cc2F)c(=O)c(C(=O)O)cn3C2CC2)CC1 [Compound 1]
# output > 25.6 µg/mL

# input Return the recorded MIC value; entry: O=C(O)c1cn(C2CC2)c2cc(N3CCN(CCCCCC(=O)N4CCN(c5cc6c(cc5F)c(=O)c(C(=O)O)cn6C5CC5)CC4)CC3)c(F)cc2c1=O [Compound 20, CP–Hexanoyl–CP Dimer]
# output > 25.6 µg/mL

# input Return the recorded MIC value; entry: O=C(O)c1cn(C2CC2)c2cc(N3CCN(CCCC(=O)N4CCN(c5cc6c(cc5F)c(=O)c(C(=O)O)cn6C5CC5)CC4)CC3)c(F)cc2c1=O [Compound 18, CP–Butyryl–CP Dimer]
# output 12.8 µg/mL

====

# System: Staphylococci (standard strains)
# measurement-notes: MIC, standard Gram-positive strains as a panel
# Assay type: cell-based, S. aureus, S. epidermidis
# condition-description: standard Gram-positive strains of Table 1; read-out: MIC toward standard Staphylococci (range over strains)
Reported MIC is given for each of the following molecules.

Example results:
O=C(O)c1cn(C2CC2)c2cc(N3CCN(CC(=O)N4CCN(c5cc6c(cc5F)c(=O)c(C(=O)O)cn6C5CC5)CC4)CC3)c(F)cc2c1=O	0.2 to 1.6 µg/mL
O=C(O)c1cn(C2CC2)c2cc(N3CCN(C(=O)CCC(F)(F)F)CC3)c(F)cc2c1=O	0.2 µg/mL
O=C(O)c1cn(C2CC2)c2cc(N3CCN(C(=O)CCCC(F)(F)F)CC3)c(F)cc2c1=O	0.2 µg/mL
O=C(O)c1cn(C2CC2)c2cc(N3CCN(C(=O)CCCCCBr)CC3)c(F)cc2c1=O	0.8 to 1.6 µg/mL
O=C(O)c1cn(C2CC2)c2cc(N3CCN(C(=O)CCCl)CC3)c(F)cc2c1=O	0.1 to 0.8 µg/mL

Shifting focus to the molecule that follows.
# input Give MIC for this entry on Staphylococci (standard strains): `O=C(O)c1cn(C2CC2)c2cc(N3CCN(C(=O)CCCCCCl)CC3)c(F)cc2c1=O`
# output 0.1 to 0.8 µg/mL

====

# System: S. epidermidis 4341
# measurement-notes: MIC, twofold microdilution, clinical strain
# Assay type: cell-based
# condition-description: Staphylococcus epidermidis, 18 h
Reported MIC is given for each of the following molecules.
Please give a number only; it is taken to be in µg/mL.

O=C(O)c1cn(C2CC2)c2cc(N3CCN(C(=O)CCCC(F)(F)F)CC3)c(F)cc2c1=O	25.6
O=C(O)c1cn(C2CC2)c2cc(N3CCN(C(=O)C4CC4)CC3)c(F)cc2c1=O	12.8
O=C(O)c1cn(C2CC2)c2cc(N3CCN(C(=O)CCCBr)CC3)c(F)cc2c1=O	25.6
O=C(O)c1cn(C2CC2)c2cc(N3CCN(C(=O)CCCCBr)CC3)c(F)cc2c1=O	25.6
O=C(O)c1cn(C2CC2)c2cc(N3CCN(C(=O)CCCCCl)CC3)c(F)cc2c1=O	6.4
O=C(O)c1cn(C2CC2)c2cc(N3CCN(CC(=O)N4CCN(c5cc6c(cc5F)c(=O)c(C(=O)O)cn6C5CC5)CC4)CC3)c(F)cc2c1=O	25.6

# input Return the recorded MIC value; entry: `O=C(O)c1cn(C2CC2)c2cc(N3CCN(C(=O)CCCCCCl)CC3)c(F)cc2c1=O`
# output 25.6

====

# Tested on: S. aureus 180
# measurement-notes: MIC, twofold microdilution, clinical strain
# Type: cell-based
# condition-description: Staphylococcus aureus, 18 h
Rule: MIC below 0.5 µg/mL gives Fulfilled. Equal to or above 0.5 µg/mL gives Not fulfilled.

The following molecules have reported results that may help.
C=CC(=O)N1CCN(c2cc3c(cc2F)c(=O)c(C(=O)O)cn3C2CC2)CC1	Not fulfilled
O=C(O)c1cn(C2CC2)c2cc(N3CCN(CC(=O)N4CCN(c5cc6c(cc5F)c(=O)c(C(=O)O)cn6C5CC5)CC4)CC3)c(F)cc2c1=O	Not fulfilled
O=C(O)c1cn(C2CC2)c2cc(N3CCN(CCCCCCCCCCC(=O)N4CCN(c5cc6c(cc5F)c(=O)c(C(=O)O)cn6C5CC5)CC4)CC3)c(F)cc2c1=O	Not fulfilled
O=C(O)c1cn(C2CC2)c2cc(N3CCN(C(=O)CCl)CC3)c(F)cc2c1=O	Fulfilled

# input Take the molecule `O=C(O)c1cn(C2CC2)c2cc(N3CCN(C(=O)CBr)CC3)c(F)cc2c1=O` and say whether its MIC is less than 0.5 µg/mL.
# output Not fulfilled

# input Take the molecule `O=C(O)c1cn(C2CC2)c2cc(N3CCN(C(=O)C4CC4)CC3)c(F)cc2c1=O` and say whether its MIC is less than 0.5 µg/mL.
# output Fulfilled

# input Take the molecule `O=C(O)c1cn(C2CC2)c2cc(N3CCN(C(=O)CCCCl)CC3)c(F)cc2c1=O` and say whether its MIC is less than 0.5 µg/mL.
# output Fulfilled

====

# System: E. cloacae 8
# measurement-notes: MIC, twofold microdilution, clinical strain
# Format: cell-based, Escherichia cloacae
# condition-description: Enterobacter cloacae, 8; clinical strain, 18 h
measurement-label: MIC (µg/mL)
Please give a number only; it is taken to be in µg/mL.

Example results:
O=C(O)c1cn(C2CC2)c2cc(N3CCN(C(=O)CCCl)CC3)c(F)cc2c1=O	0.8
O=C(O)c1cn(C2CC2)c2cc(N3CCN(C(=O)CCCCBr)CC3)c(F)cc2c1=O	0.05

# input Return the recorded MIC value; entry: `O=C(O)c1cn(C2CC2)c2cc(N3CCN(C(=O)CC(F)(F)F)CC3)c(F)cc2c1=O`
# output 2

# input Return the recorded MIC value; entry: `O=C(O)c1cn(C2CC2)c2cc(N3CCN(C(=O)CCCCCCl)CC3)c(F)cc2c1=O`
# output 16

====

# System: M. tuberculosis Spec 210
# measurement-notes: microbe, parasite or virus in culture
# Type: cell-based, Mycobacterium tuberculosis
# condition-description: M. tuberculosis Spec. 210
Reported fold more effective than the reference tuberculostatics is given for each of the following compounds.

O=C(O)c1cn(C2CC2)c2cc(N3CCN(C(=O)CBr)CC3)c(F)cc2c1=O	2–8 fold

# input Return the recorded fold more effective than the reference tuberculostatics value; entry: `O=C(O)c1cn(C2CC2)c2cc(N3CCN(CCCCC(=O)N4CCN(c5cc6c(cc5F)c(=O)c(C(=O)O)cn6C5CC5)CC4)CC3)c(F)cc2c1=O`
# output 8–32 fold

# input Return the recorded fold more effective than the reference tuberculostatics value; entry: `C=CC(=O)N1CCN(c2cc3c(cc2F)c(=O)c(C(=O)O)cn3C2CC2)CC1`
# output 8–32 fold

# input Return the recorded fold more effective than the reference tuberculostatics value; entry: `O=C(O)c1cn(C2CC2)c2cc(N3CCN(CCCC(=O)N4CCN(c5cc6c(cc5F)c(=O)c(C(=O)O)cn6C5CC5)CC4)CC3)c(F)cc2c1=O`
# output 2–8 fold

====

# Test system: S. pasteuri KR 4358
# measurement-notes: MIC, twofold microdilution, clinical strain
# Format: cell-based
# condition-description: Staphylococcus pasteuri, KR4358, 18 h
measurement-label: MIC (µg/mL)
Please give a number only; it is taken to be in µg/mL.

O=C(O)c1cn(C2CC2)c2cc(N3CCN(C(=O)CCCCBr)CC3)c(F)cc2c1=O	0.2
O=C(O)c1cn(C2CC2)c2cc(N3CCN(C(=O)CCCCCBr)CC3)c(F)cc2c1=O	0.8
O=C(O)c1cn(C2CC2)c2cc(N3CCN(C(=O)CCl)CC3)c(F)cc2c1=O	0.2
O=C(O)c1cn(C2CC2)c2cc(N3CCN(CC(=O)N4CCN(c5cc6c(cc5F)c(=O)c(C(=O)O)cn6C5CC5)CC4)CC3)c(F)cc2c1=O	1.6

Shifting focus to the molecule that follows.
# input Return the recorded MIC value; entry: `O=C(O)c1cn(C2CC2)c2cc(N3CCN(CCCCCC(=O)N4CCN(c5cc6c(cc5F)c(=O)c(C(=O)O)cn6C5CC5)CC4)CC3)c(F)cc2c1=O`
# output 0.8
